- Study target: Histamine H1 receptor (Homo sapiens)
- Test description: Antagonist activity at human recombinant histamine H1 receptor expressed in Sf9 cells coexpressing RGS4 assessed as inhibition of histamine-induced […] hydrolysis preincubated for 2 mins before [gamma32P]GTP addition measured after 20 mins by steady-state GTPase activity assay
- Assay type: functional
Quantity kind: pKb

Compound: CC(CC(=O)/N=C(\N)NCCCc1cccnc1)c1ccccc1 (stereo unspecified)
pKb: < 5

Please look at the following compound next.
What value of measured pKb is listed for N/C(=N\C(=O)CC(c1ccccc1)c1ccccc1)NCCCc1ccccc1 ?
5.26

----------
- Study target: Histamine H3 receptor (Homo sapiens, UniProt Q9Y5N1)
- Sequence (Q9Y5N1 whole entry): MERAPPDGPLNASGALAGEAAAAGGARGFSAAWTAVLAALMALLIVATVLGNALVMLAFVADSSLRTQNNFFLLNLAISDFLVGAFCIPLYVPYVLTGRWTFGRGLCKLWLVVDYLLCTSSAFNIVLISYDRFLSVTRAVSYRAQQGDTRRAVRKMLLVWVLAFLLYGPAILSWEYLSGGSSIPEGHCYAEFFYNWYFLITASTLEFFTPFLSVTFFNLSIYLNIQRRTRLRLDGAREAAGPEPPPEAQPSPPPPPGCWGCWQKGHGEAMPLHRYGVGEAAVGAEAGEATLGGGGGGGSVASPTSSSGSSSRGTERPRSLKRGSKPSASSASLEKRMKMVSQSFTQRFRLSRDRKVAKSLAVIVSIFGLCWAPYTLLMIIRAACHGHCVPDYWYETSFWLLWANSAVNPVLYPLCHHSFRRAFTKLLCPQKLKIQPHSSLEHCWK
- Test description: Intrinsic activity at human recombinant histamine H3 receptor expressed in Sf9 cells coexpressing Galphai2,Gbeta1gamma2 and RGS4 preincubated for 2 mins before [gamma32P]GTP addition measured after 20 mins by steady-state GTPase activity assay relative to histamine
Binning of Intrinsic activity into classes: interval 1: < -0.2; interval 2: ≥ -0.2 and < -0.03; interval 3: ≥ -0.03

Some solved cases for reference:
Compound: N/C(=N\C(=O)CC(c1ccccc1)c1ccccc1)NCCCc1ncc[nH]1
Assigned category: interval 1

Compound: CC(CC(=O)/N=C(\N)NCCCc1ccccc1)c1ccccc1 (stereo unspecified)
Assigned category: interval 2

Compound: CC(CC(=O)/N=C(\N)NCCCc1ccc(CN(C)C)o1)c1cccs1 (stereo unspecified)
Assigned category: interval 1

Compound: CC(CC(=O)/N=C(\N)NCCCc1ccccn1)c1ccccc1 (stereo unspecified)
Assigned category: interval 2

Compound: CC(CC(=O)/N=C(\N)NCCCc1cn[nH]c1)c1ccccc1 (stereo unspecified)
Assigned category: interval 3

Compound: N/C(=N\C(=O)CC(c1ccccc1)c1ccccc1)NCCCc1ccccc1
Assigned category: interval 1

Compound: CC(CC(=O)/N=C(\N)NCCCc1ncc[nH]1)c1ccccc1 (stereo unspecified)
Assigned category: interval 1

Compound: N/C(=N\C(=O)CC(c1ccccc1)c1ccccc1)NCCCc1ccncc1
Assigned category: interval 2

Compound: CC(CC(=O)/N=C(\N)NCCCc1cccnc1)c1ccccc1 (stereo unspecified)
Assigned category: interval 3

Please turn your attention to the following entry.
Hi, small favor: classify CC(CC(=O)/N=C(\N)NCCCc1c[nH]cn1)c1ccccc1 (stereo unspecified) by its Intrinsic activity when you get a moment.
interval 3
